assay_notes: Cytotoxicity against human DU145 cells assessed as cell growth inhibition by MTT assay
Format: functional, cell-based
condition_set: DU-145
pIC50: −log10 of the molar value.

smiles_notation: CCCCCCCCC[C@H](O)[C@@H](C)N
pIC50: 4.97

smiles_notation: CCCCCCCCC[C@H](O)[C@H](N)CO
pIC50: 4.47

smiles_notation: COc1cccc2c1C(=O)c1c(O)c3c(c(O)c1C2=O)C[C@@](O)(C(=O)CO)C[C@@H]3O[C@H]1C[C@H](N)[C@H](O)[C@H](C)O1
pIC50: 6.15

smiles_notation: CCCCCCCCC[C@H](O)[C@@H](C)NC(C)=O
pIC50: 4.74
